Ref: paper PMC3668529

target.or.system: rCPT-2 (Rattus norvegicus, UniProt P18886)
Sequence (P18886 26-658): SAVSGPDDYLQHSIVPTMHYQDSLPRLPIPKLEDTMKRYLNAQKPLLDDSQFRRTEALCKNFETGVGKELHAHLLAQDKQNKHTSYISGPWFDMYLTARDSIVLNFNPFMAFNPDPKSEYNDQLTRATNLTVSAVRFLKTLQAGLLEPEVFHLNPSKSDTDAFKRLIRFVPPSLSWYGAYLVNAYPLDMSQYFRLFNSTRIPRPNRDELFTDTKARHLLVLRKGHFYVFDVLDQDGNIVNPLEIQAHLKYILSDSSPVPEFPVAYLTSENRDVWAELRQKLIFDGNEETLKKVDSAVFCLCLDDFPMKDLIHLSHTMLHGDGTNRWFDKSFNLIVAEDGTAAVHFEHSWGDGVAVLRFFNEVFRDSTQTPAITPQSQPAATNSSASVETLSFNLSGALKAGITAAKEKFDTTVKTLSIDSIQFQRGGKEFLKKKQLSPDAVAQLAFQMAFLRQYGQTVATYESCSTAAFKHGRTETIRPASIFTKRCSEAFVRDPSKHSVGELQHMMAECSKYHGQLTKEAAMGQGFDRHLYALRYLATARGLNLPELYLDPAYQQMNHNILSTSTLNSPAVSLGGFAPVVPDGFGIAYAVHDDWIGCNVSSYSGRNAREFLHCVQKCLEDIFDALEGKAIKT
experiment.description: Isothermal titration calorimetry
Format: binding
study.conditions: ITC, 37 °C, Tris/HCl pH 8
pKd: −log10 of the molar value.
measured.endpoint: pKd

> print(dat)
                                   compound  numeric.readout
1  CCCCCCCCCCCCCCNC(=O)N[C@H](CC(=O)[O-])C[N+](C)(C)C [Inhibitor 4, reference compound]             4.70

###

target.or.system: UniProt P18886
experiment.description: rCPT-2 activity assay, spectrophotometric with DTNB
study.conditions: diluted lysate, 30 °C, reverse reaction, no additional β-OG
measured.endpoint: IC50

> print(dat)
                                   compound  result
1  CCCCCCCCCCCCCCNC(=O)N[C@H](CC(=O)[O-])C[N+](C)(C)C [Inhibitor 4, reference compound]  380 nM
